Target: recombinant human serotonin receptor 5-HT2A (Homo sapiens)
Construct: expressed in transfected cells; method B: loaded with Ca2+ dye
Sequence (P28223 whole entry): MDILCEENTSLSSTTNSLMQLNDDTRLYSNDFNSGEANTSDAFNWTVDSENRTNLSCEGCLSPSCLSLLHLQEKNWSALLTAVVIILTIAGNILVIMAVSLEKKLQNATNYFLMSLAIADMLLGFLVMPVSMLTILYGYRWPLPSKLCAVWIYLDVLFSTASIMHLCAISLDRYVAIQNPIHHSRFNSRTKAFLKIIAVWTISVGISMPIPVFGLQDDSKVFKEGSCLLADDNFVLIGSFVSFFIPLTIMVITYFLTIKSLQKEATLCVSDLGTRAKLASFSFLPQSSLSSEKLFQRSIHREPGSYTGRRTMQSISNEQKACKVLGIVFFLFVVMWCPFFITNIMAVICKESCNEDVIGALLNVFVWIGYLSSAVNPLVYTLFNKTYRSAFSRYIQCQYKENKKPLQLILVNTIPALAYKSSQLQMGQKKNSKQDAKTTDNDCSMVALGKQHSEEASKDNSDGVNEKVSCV
Test: 5-HT2A antagonist Ca2+ assay in CHO-K1 cells (method A aequorin luminescence / method B FLIPR fluorescence)
Assay type: cell-based
Conditions: antagonist mode vs EC80 of reference agonist, method A or B, read-out: 5HT2A IC50
READOUT_TYPE: IC50 (µM)

[[record]]
compound = "COc1ccccc1O[C@@H]1CCN(CC2Cc3ccccc3C2)C[C@H]1C"
system_tested = "recombinant human serotonin receptor 5-HT2A (Homo sapiens)"
units = "µM"
censor_symbol = "="
experimental_result = 0.01

[[record]]
compound = "c1ccc(CCN2C[C@H]3CC[C@@H](C2)N3c2ccccc2)cc1"
system_tested = "recombinant human serotonin receptor 5-HT2A (Homo sapiens)"
units = "µM"
censor_symbol = ">"
experimental_result = 11

[[record]]
compound = "OC(COc1ccccc1)CN1C[C@@H]2C[C@H]1CN2c1ccccc1 (some centres unmarked)"
system_tested = "recombinant human serotonin receptor 5-HT2A (Homo sapiens)"
units = "µM"
censor_symbol = "="
experimental_result = 10.4

[[record]]
compound = "Fc1ccc(OC2CCN(CCC3CCc4cnccc43)CC2)cc1 (centres unmarked)"
system_tested = "recombinant human serotonin receptor 5-HT2A (Homo sapiens)"
units = "µM"
censor_symbol = "="
experimental_result = 0.01

[[record]]
compound = "c1ccc2c(c1)CC1(CCN(CC3Cc4cccnc4C3)CC1)O2 (centres unmarked)"
system_tested = "recombinant human serotonin receptor 5-HT2A (Homo sapiens)"
units = "µM"
censor_symbol = "="
experimental_result = 2.76

